system: A498; assay: NCI tumour cell line growth inhibition, 48 h
Activity calls are given as the source filed them. Rule as the data show it: active = GI50 up to about 1.1 µM and inactive = higher.

molecule: COc1ccc(O)cc1 [MEQUINOL]
system.name: A498
GI50: > 100 µM (inactive)
//
molecule: O=C(Nc1cccc(C(F)(F)F)c1)C(=O)C(C(=O)c1ccc(Cl)c(Cl)c1)C1OC(=O)c2ccccc21 (stereo not drawn)
system.name: A498
GI50: 21.4 µM (inactive)
//
molecule: Nc1nc2cc(CNc3ccc(C(=O)O)cc3)ccc2nc1-c1ccccc1
system.name: A498
GI50: > 100 µM (inactive)
//
molecule: CO/N=C1\CC(C)N2C(=O)C(C(C)C)NC(=O)C(NC(=O)c3c4nc5c(C(=O)NC6C(=O)NC(C(C)C)C(=O)N7C(C)CC(O)C7C(=O)N(C)CC(=O)N(C)C(C(C)C)C(=O)OC6C)ccc(C)c5oc-4c(C)c(=O)c3N)C(CO)OC(=O)C(C)N(C)C(=O)CN(C)C(=O)C12 (stereo not drawn)
system.name: A498
GI50: 1.13 µM (inactive)
//
molecule: COc1cc(N/N=C/C#N)cc(OC)c1OC
system.name: A498
GI50: > 10 µM (inactive)
//
molecule: CC1CC/C(=C\c2ccc(F)cc2)C2=C1C(c1ccc(F)cc1)N1C(=O)CSC1=N2 (stereo not drawn)
system.name: A498
GI50: 57 µM (inactive)
//
molecule: Oc1ccc(Cn2c(-c3ccc(O)c(O)c3)nc3ccccc32)cc1O
system.name: A498
GI50: 90.2 µM (inactive)
//
molecule: Cc1cc(C)n(-c2nc(-n3nc(C)cc3C)nc(-n3nc(C)cc3C)n2)n1
system.name: A498
GI50: > 100 µM (inactive)
